Measured IC50 accompanies every entry in the list below.
# target-desc: Kras and SOS1 (biotin-tagged human Kras loaded with GDP, His-tagged human SOS1) (Homo sapiens, UniProt P01116, G12D)
# Construct: made in house; host or cells: E. coli (stated for Kras only)
# Sequence (P01116 1-188 isoform P01116-2 G12D): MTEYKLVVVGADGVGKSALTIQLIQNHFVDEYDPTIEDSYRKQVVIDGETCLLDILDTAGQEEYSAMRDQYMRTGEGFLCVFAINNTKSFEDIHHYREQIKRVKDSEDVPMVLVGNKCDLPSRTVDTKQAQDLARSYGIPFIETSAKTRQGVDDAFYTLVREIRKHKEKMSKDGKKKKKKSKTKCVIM
# experiment: Protein-protein interaction inhibition between Kras and SOS1 (KrasGl2D-SOS PPI) using AlphaScreen
# Type: binding
# conditions: AlphaScreen; biotin-tagged human Kras loaded with GDP, His-tagged human SOS1; read-out: KRAS G12D-SOS PPI IC50
# Protocol: Protein-Protein Interaction Inhibition Between Kras and SOS1 (KrasGl2D-SOS PPI) Using AlphaScreen Protein-protein interaction inhibition (PPI) between Kras and SOS1 was measured by energy transfer from nickel-conjugated donor beads to streptavidin-conjugated acceptor beads using biotin-tagged human Kras expressed in E. coli and loaded with GDP after purification and His-tagged human SOS1 enzyme. […]
Starred links: 1 amine or outer side, 2 acyl side, 3 side chain; linkers in the order of their positions; H or OH if unused. Positions of bridges follow the written chain, without caps; N, C: chain ends. Non-standard residues stand in square brackets, D forms with d. Residues, ends and D or L forms follow the SMILES beside them. *: point of attachment. hPhe(3,5-F2-4-CF3) = N[C@@H](CCc1cc(F)c(C(F)(F)F)c(F)c1)C(=O)O; hPhe(3-Cl-4-CF3) = N[C@@H](CCc1ccc(C(F)(F)F)c(Cl)c1)C(=O)O; hPhe(3-F,4-CF3) = N[C@@H](CCc1ccc(C(F)(F)F)c(F)c1)C(=O)O; NMePhe(3,4-F2) = CN[C@@H](Cc1ccc(F)c(F)c1)C(=O)O; NMePhe(2-CN) = CN[C@@H](Cc1ccccc1C#N)C(=O)O; NMePhe(4-Me) = CN[C@@H](Cc1ccc(C)cc1)C(=O)O; NMedβ3hAla = C[C@H](CC(=O)[*:2])N(C)[*:1]; NMeGly(cPent) = CN[C@H](C(=O)O)C1CCCC1; Phe(2-OMe) = COc1ccccc1C[C@H](N)C(=O)O; Phe(3-I) = N[C@@H](Cc1cccc(I)c1)C(=O)O; Phe(2-F) = N[C@@H](Cc1ccccc1F)C(=O)O; NMeY = CN[C@@H](Cc1ccc(O)cc1)C(=O)O; NMeCha = CN[C@@H](CC1CCCCC1)C(=O)O; NMeD = CN[C@@H](CC(=O)O)C(=O)O; NMeL = CN[C@@H](CC(C)C)C(=O)O; NMeV = CN[C@H](C(=O)O)C(C)C; d(β3hA) = C[C@@H](N)CC(=O)O; NMeAbu = CC[C@H](NC)C(=O)O; NMeS = CN[C@@H](CO)C(=O)O; NMeA = CN[C@@H](C)C(=O)O; NMeAib = CNC(C)(C)C(=O)O; Nle = CCCC[C@H](N)C(=O)O; Piperidide = C1CCN(*)CC1; Pyrrolidide = C1CCN(*)C1; dNMeA = CN[C@H](C)C(=O)O; Ac5c = NC1(C(=O)O)CCCC1; Aze = O=C(O)[C@@H]1CCN1; Aib = CC(C)(N)C(=O)O; Sar = CNCC(=O)O; Propyl = CCC*
Field: value (include unit after the number)

Examples from the recorded data:
compound: CC[C@H](C)[C@@H]1NC(=O)[C@H](C)N(C)C(=O)C[C@@H](C)NC(=O)[C@H](C2CCCC2)N(C)C(=O)C2(CCCC2)NC(=O)[C@@H]2CCCN2C(=O)[C@H](CCc2ccc(C(F)(F)F)c(Cl)c2)NC(=O)[C@@H](C)N(C)C(=O)[C@H](Cc2ccc(F)c(F)c2)N(C)C(=O)CN(C)C(=O)CN(C)C1=O [Compound 1075] (cyclo([Ac5c][NMeGly(cPent)][d(β3hA)][NMeA]I[Sar][Sar][NMePhe(3,4-F2)][dNMeA][hPhe(3-Cl-4-CF3)]P))
IC50: 140 nM
//
compound: CC[C@H](C)[C@@H]1NC(=O)[C@H](CC(C)C)N(C)C(=O)C[C@@H](C(=O)N(C)C)N(C)C(=O)[C@H](C2CCCC2)N(C)C(=O)C2(CCCC2)NC(=O)[C@H](C)NC(=O)[C@H](CCc2ccc(C(F)(F)F)c(Cl)c2)NC(=O)CN(C)C(=O)[C@H](CC2CCCCC2)N(C)C(=O)[C@@H]2CCN2C(=O)[C@H](C)N(C)C1=O [Compound 575] ([NMeL]I[NMeA][Aze][NMeCha][Sar][hPhe(3-Cl-4-CF3)]A[Ac5c][NMeGly(cPent)][NMeD]-NMe2; lactam N-11)
IC50: 0.56 nM
//
compound: CC[C@H](C)[C@@H]1NC(=O)[C@H](CC(C)C)N(C)C(=O)C[C@@H](C(=O)N2CCCCC2)N(C)C(=O)[C@H](C(C)C)N(C)C(=O)C2(CCCC2)NC(=O)[C@@H]2CCCN2C(=O)[C@H](CCc2ccc(C(F)(F)F)c(Cl)c2)NC(=O)CN(C)C(=O)[C@H](Cc2ccccc2C#N)N(C)C(=O)CN(C)C(=O)CN(C)C1=O [Compound 935] ([NMeL]I[Sar][Sar][NMePhe(2-CN)][Sar][hPhe(3-Cl-4-CF3)]P[Ac5c][NMeV][NMeD]-Piperidide; lactam N-11)
IC50: 6 nM
//
compound: CC[C@H](C)[C@@H]1NC(=O)[C@H](CC(C)C)N(C)C(=O)C[C@@H](C(=O)N2CCCCC2)N(C)C(=O)[C@H](CC)N(C)C(=O)C2(CCCC2)NC(=O)[C@@H]2CCCN2C(=O)[C@H](CCc2ccc(C(F)(F)F)c(Cl)c2)NC(=O)CN(C)C(=O)[C@H](CC2CCCCC2)N(C)C(=O)CN(C)C(=O)CN(C)C1=O [Compound 1741] ([NMeL]I[Sar][Sar][NMeCha][Sar][hPhe(3-Cl-4-CF3)]P[Ac5c][NMeAbu][NMeD]-Piperidide; lactam N-11)
IC50: 3.8 nM
//
compound: CCCOC[C@H]1C(=O)N(C)CC(=O)N[C@@H](CCc2ccc(C(F)(F)F)c(F)c2)C(=O)N2CCC[C@H]2C(=O)NC2(CCCC2)C(=O)N(C)[C@@H](C2CCCC2)C(=O)N(C)[C@H](C(=O)N2CCCC2)CC(=O)N(C)[C@@H](CC(C)C)C(=O)N[C@@H]([C@@H](C)CC)C(=O)N(C)[C@@H](C)C(=O)N2CC[C@H]2C(=O)N1C [Compound 987] ([NMeL]I[NMeA][Aze][NMeS](Propyl)[Sar][hPhe(3-F,4-CF3)]P[Ac5c][NMeGly(cPent)][NMeD]-Pyrrolidide; lactam N-11)
IC50: 0.96 nM
//
compound: CC[C@H](C)[C@@H]1NC(=O)[C@H](CC(C)C)N(C)C(=O)C[C@@H](C(=O)N2CCCCC2)N(C)C(=O)[C@H](CC(C)C)NC(=O)C(C)(C)N(C)C(=O)[C@H](Cc2ccccc2OC)NC(=O)[C@H](Cc2cccc(I)c2)NC(=O)CN(C)C(=O)[C@H](Cc2ccc(C)cc2)N(C)C(=O)[C@@H]2CCN2C(=O)CN(C)C1=O [Compound 459] ([NMeL]I[Sar][Aze][NMePhe(4-Me)][Sar][Phe(3-I)][Phe(2-OMe)][NMeAib]L[NMeD]-Piperidide; lactam N-11)
IC50: 9.5 nM

Query: IC50; subject: CC[C@H](C)[C@@H]1NC(=O)[C@H](C)N(C)C(=O)C[C@@H](C)N(C)C(=O)[C@H](CC(C)C)NC(=O)C(C)(C)N(C)C(=O)[C@H](CC(C)C)NC(=O)[C@H](CCc2ccc(C(F)(F)F)c(Cl)c2)NC(=O)CN(C)C(=O)[C@H](Cc2ccc(C)cc2)N(C)C(=O)[C@@H]2CCN2C(=O)CN(C)C1=O [Compound 1377] (cyclo([Aze][NMePhe(4-Me)][Sar][hPhe(3-Cl-4-CF3)]L[NMeAib]L[NMedβ3hAla][NMeA]I[Sar]))
5.8 nM

Query: IC50; subject: CC[C@H](C)[C@@H]1NC(=O)[C@H](CC(C)C)N(C)C(=O)C[C@@H](C)NC(=O)[C@H](CC(C)C)N(C)C(=O)C(C)(C)NC(=O)[C@H](CC(C)C)N(C)C(=O)[C@H](CCc2cc(F)c(C(F)(F)F)c(F)c2)NC(=O)CN(C)C(=O)[C@H](CC2CCCCC2)N(C)C(=O)CN(C)C(=O)CN(C)C1=O [Compound 119] (cyclo([Aib][NMeL][d(β3hA)][NMeL]I[Sar][Sar][NMeCha][Sar][hPhe(3,5-F2-4-CF3)][NMeL]))
39 nM

Query: IC50; subject: CCCC[C@@H]1NC(=O)[C@H](Cc2ccccc2F)NC(=O)CN(C)C(=O)[C@H](Cc2ccc(OC)cc2)N(C)C(=O)CN(C)C(=O)CN(C)C(=O)[C@H]([C@@H](C)CC)NC(=O)[C@H](CC(C)C)N(C)C(=O)C[C@@H](C(=O)N2CCCCC2)N(C)C(=O)[C@H](CC(C)C)NC(=O)[C@H](Cc2ccc(OC)cc2)N(C)C1=O [Compound 681] ([NMeL]I[Sar][Sar][NMeY](Me)[Sar][Phe(2-F)][Nle][NMeY](Me)L[NMeD]-Piperidide; lactam N-11)
5.9 nM
